- target-entity: Peroxisome proliferator-activated receptor alpha (Homo sapiens, UniProt Q07869)
- Sequence (Q07869 whole entry): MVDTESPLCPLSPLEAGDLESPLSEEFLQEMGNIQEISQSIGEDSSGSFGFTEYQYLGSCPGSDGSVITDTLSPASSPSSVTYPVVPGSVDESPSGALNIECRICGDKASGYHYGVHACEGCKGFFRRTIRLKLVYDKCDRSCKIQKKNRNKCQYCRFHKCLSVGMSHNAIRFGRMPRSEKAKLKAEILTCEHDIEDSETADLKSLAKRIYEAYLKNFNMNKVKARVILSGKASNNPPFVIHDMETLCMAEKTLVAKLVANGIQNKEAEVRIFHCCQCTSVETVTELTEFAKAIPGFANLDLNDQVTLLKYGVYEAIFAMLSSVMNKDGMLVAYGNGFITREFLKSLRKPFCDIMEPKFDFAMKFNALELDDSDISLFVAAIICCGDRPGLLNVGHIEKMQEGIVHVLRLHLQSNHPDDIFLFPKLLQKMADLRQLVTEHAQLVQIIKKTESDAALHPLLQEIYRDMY
- assay-info: Agonist activity at PPARalpha expressed in HEK293 cells by measuring Gal4 luciferase reporter activity
reported-property: pEC50
Formally, pEC50 is defined as -log10 of the concentration c, with c in mol/L.

Query: pEC50 lookup needed for Cc1cc(SCc2nc(-c3ccc(C(F)(F)F)cc3)ns2)ccc1OC(C)(C)C(=O)O , thanks.
Result: 7.10

====

- assay-info: Half life in rat at 3 mg/kg
- Type: ADME, organism-based
- Design: dose 3 mg/kg
- protocol-conditions: in vivo
reported-property: half-life (h)
Answer in h, number only, no unit symbol.

Query: half-life lookup needed for Cc1cc(SCc2nc(-c3ccc(OC(F)(F)F)cc3)ns2)ccc1OC(C)(C)C(=O)O , thanks.
Result: 5.3

====

- assay-info: Bioavailability in rat at 3 mg/kg, po
- Format: ADME, organism-based
- protocol-conditions: in vivo
reported-property: bioavailability (%)
Answer in %, number only, no unit symbol.

Query: bioavailability lookup needed for Cc1cc(SCc2nc(-c3ccc(OC(F)(F)F)cc3)ns2)ccc1OC(C)(C)C(=O)O , thanks.
Result: 96

====

- target-entity: Peroxisome proliferator-activated receptor alpha (Homo sapiens) (UniProt Q07869)
- assay-info: Agonist activity at PPARalpha expressed in HEK293 cells by measuring Gal4 luciferase reporter activity relative to (S)-2- {2-[1-Ethyl-3-(4-trifluoromethoxyphenyl)ureido] indan-5-ylsulfanyl}-2- methylpropionic acid
- Format: functional, cell-based
Lab note - cut at 40% for Activity: label 1 if strictly below, label 0 if not.

Look over these answered cases.
Cc1cc(SCc2nsc(-c3ccc(OC(F)(F)F)cc3)n2)ccc1OC(C)(C)C(=O)O
label 0
Cc1cc(SCc2nc(-c3ccc(Cl)cc3)ns2)ccc1OC(C)(C)C(=O)O
label 1
Cc1cc(OCc2nc(-c3ccc(OC(F)(F)F)cc3)ns2)ccc1OC(C)(C)C(=O)O
label 0

Now turn to the next compound.
Query: Dear reviewer, please state whether Cc1cc(SCc2nc(-c3ccc(OC(F)(F)F)cc3)ns2)ccc1OC1(C(=O)O)CCCC1 has Activity strictly beneath 40%.
Result: label 1

====

- target-entity: Peroxisome proliferator-activated receptor alpha (Mus musculus, UniProt P23204)
- Sequence (P23204 whole entry): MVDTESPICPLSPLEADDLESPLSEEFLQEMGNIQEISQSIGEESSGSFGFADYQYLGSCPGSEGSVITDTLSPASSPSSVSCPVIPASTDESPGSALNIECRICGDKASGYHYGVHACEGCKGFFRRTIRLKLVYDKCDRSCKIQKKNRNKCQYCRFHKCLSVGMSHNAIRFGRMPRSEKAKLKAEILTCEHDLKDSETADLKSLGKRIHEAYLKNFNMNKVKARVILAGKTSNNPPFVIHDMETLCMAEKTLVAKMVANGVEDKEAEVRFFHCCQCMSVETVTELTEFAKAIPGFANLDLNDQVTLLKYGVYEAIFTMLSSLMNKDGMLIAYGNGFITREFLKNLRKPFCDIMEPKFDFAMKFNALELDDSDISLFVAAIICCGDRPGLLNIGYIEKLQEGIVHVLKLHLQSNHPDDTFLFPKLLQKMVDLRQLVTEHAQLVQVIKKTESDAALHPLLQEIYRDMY
- assay-info: Efficacy on PPARalpha in mouse by HD assay
reported-property: pEC50
Formally, pEC50 is defined as -log10 of the concentration c, with c in mol/L.

Query: pEC50 lookup needed for Cc1cc(SCc2nc(-c3ccc(OC(F)(F)F)cc3)ns2)ccc1OC(C)(C)C(=O)O , thanks.
Result: 6.90
